- tested_target: Botulinum neurotoxin type A (Clostridium botulinum)
- protocol_description: Inhibition of clostridium botulinum Botulinum neurotoxin type A light chain at 20 uM
measurement_kind: inhibition (%)

Cc1cc(NCCCN(C)C)c2ccc3c(ccc4c(NCCCN(C)C)cc(C)nc43)c2n1.Cl: 68.9
Cc1cc(NCCCN)c2ccc3c(ccc4c(NCCCN)cc(C)nc43)c2n1.Cl: 70
Cc1cc(NCCCN2CCCCC2)c2ccc3c(ccc4c(NCCCN5CCCCC5)cc(C)nc43)c2n1.Cl: 66.1
Cc1cc(NCCCN2CCOCC2)c2ccc3c(ccc4c(NCCCN5CCOCC5)cc(C)nc43)c2n1.Cl: 55.6
Cc1cc(NCCCCN)c2ccc3c(ccc4c(NCCCCN)cc(C)nc43)c2n1: 72.2
CCN(CC)CCNc1cc(C)nc2c1ccc1c2ccc2c(NCCN(CC)CC)cc(C)nc21.Cl: 55.4
Cc1cc(NCCN2CCOCC2)c2ccc3c(ccc4c(NCCN5CCOCC5)cc(C)nc43)c2n1.Cl: 39
Cc1cc(NCCN2CCCC2)c2ccc3c(ccc4c(NCCN5CCCC5)cc(C)nc43)c2n1.Cl: 60.3
Cc1cc(NCCN(C)C)c2ccc3c(ccc4c(NCCN(C)C)cc(C)nc43)c2n1.Cl: 57
Cc1cc(NCCN)c2ccc3c(ccc4c(NCCN)cc(C)nc43)c2n1.Cl: 62.7
CCN(CC)CCCNc1cc(C)nc2c1ccc1c2ccc2c(NCCCN(CC)CC)cc(C)nc21.Cl: 64.7
Cc1cc(NCCN2CCCCC2)c2ccc3c(ccc4c(NCCN5CCCCC5)cc(C)nc43)c2n1.Cl: 63.4
Cc1cc(NCCCN2CCCC2)c2ccc3c(ccc4c(NCCCN5CCCC5)cc(C)nc43)c2n1.Cl: 73.5

----------
Each item that follows carries a reported inhibition at 20 µM.
- Tested on: Ebolavirus
- protocol_description: Antiviral activity against Zaire ebolavirus expressing enhanced GFP in Vero 76 cells at 20 uM after 48 hrs by standard Plaque assay
- Format: functional
- test_settings: Orthoebolavirus
measurement_kind: inhibition at 20 µM (%)

CCN(CC)CCNc1cc(C)nc2c1ccc1c2ccc2c(NCCN(CC)CC)cc(C)nc21.Cl: 97
Cc1cc(NCCCN2CCOCC2)c2ccc3c(ccc4c(NCCCN5CCOCC5)cc(C)nc43)c2n1.Cl: 96
Cc1cc(NCCN2CCOCC2)c2ccc3c(ccc4c(NCCN5CCOCC5)cc(C)nc43)c2n1.Cl: 53
Cc1cc(NCCCN2CCCCC2)c2ccc3c(ccc4c(NCCCN5CCCCC5)cc(C)nc43)c2n1.Cl: 100

----------
Below, each entry is listed with its recorded Ratio IC50.
- Tested on: Plasmodium falciparum
- protocol_description: Resistance index, ratio of IC50 for Plasmodium falciparum W2 to IC50 for Plasmodium falciparum D6
- Type: functional
measurement_kind: Ratio IC50

Cc1cc(NCCCN2CCCCC2)c2ccc3c(ccc4c(NCCCN5CCCCC5)cc(C)nc43)c2n1.Cl: 0.75
Cc1cc(NCCN2CCCC2)c2ccc3c(ccc4c(NCCN5CCCC5)cc(C)nc43)c2n1.Cl: 0.48
Cc1cc(NCCN2CCCCC2)c2ccc3c(ccc4c(NCCN5CCCCC5)cc(C)nc43)c2n1.Cl: 0.62
CCN(CC)CCCNc1cc(C)nc2c1ccc1c2ccc2c(NCCCN(CC)CC)cc(C)nc21.Cl: 0.29
Cc1cc(NCCCN)c2ccc3c(ccc4c(NCCCN)cc(C)nc43)c2n1.Cl: 2.4
Cc1cc(NCCN)c2ccc3c(ccc4c(NCCN)cc(C)nc43)c2n1.Cl: 3.22
Cc1cc(NCCN(C)C)c2ccc3c(ccc4c(NCCN(C)C)cc(C)nc43)c2n1.Cl: 0.59
